These data points were gathered from patent US10947263B2.

Molecular target: STING WT (His-TVMV-S-hSTING(155-341)-H232R) (Homo sapiens, UniProt Q86WV6, H232R)
Construct: STING WT: His-TVMV-S-hSTING(155-341)-H232R
Sequence (Q86WV6 with tags, fused parts or gaps H232R): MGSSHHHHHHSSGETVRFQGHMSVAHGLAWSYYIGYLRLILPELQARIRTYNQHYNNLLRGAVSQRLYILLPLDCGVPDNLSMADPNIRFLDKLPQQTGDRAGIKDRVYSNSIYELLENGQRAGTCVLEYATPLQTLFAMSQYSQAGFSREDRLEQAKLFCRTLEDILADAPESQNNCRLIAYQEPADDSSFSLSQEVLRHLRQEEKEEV
Assay: STING HTRF binding assay (time resolved FRET competition), STING WT
Details: 20 nM His-tagged STING WT cytoplasmic domain, 200 nM fluorescein-labeled cGAMP analog probe, one hour; read-out: HTRF Binding Assays IC50 WT
pIC50: −log10 of the molar value.
PROPERTY_LABEL: pIC50

O=[N+]([O-])c1cccc2c1nnn2[C@@H]1O[C@@H]2COP(=O)(S)O[C@H]3[C@@H](F)[C@H](n4cnc5c4ncn4ccnc54)O[C@@H]3COP(=O)(S)O[C@@H]1[C@@H]2F (some centres unmarked): 7.30
Nc1ncnc2c1ncn2[C@@H]1O[C@@H]2COP(=O)(S)O[C@@H]3[C@H](F)[C@@H](COP(=O)(S)O[C@H]2[C@H]1F)O[C@H]3n1nnc2c([N+](=O)[O-])cccc21 (single isomer, unassigned) [Example 11-3]: 7.30

----------
Target: STING WT (His-TVMV-S-hSTING(155-341)-H232R) (Homo sapiens, UniProt Q86WV6, H232R)
Construct: STING WT: His-TVMV-S-hSTING(155-341)-H232R
Experiment: STING HTRF binding assay (time resolved FRET competition), STING WT
Conditions: 20 nM His-tagged STING WT cytoplasmic domain, 200 nM fluorescein-labeled cGAMP analog probe, one hour; read-out: HTRF Binding Assays IC50 WT
pIC50: −log10 of the molar value.
PROPERTY_LABEL: pIC50

[I] Nc1ncnc2c1ncn2[C@@H]1O[C@@H]2COP(=O)(S)O[C@@H]3[C@H](O)[C@@H](COP(=O)(S)O[C@H]2[C@H]1F)O[C@H]3n1nnc2c([N+](=O)[O-])cccc21 (single isomer, unassigned) [Example 7-1]
[II] O=[N+]([O-])c1cccc2c1nnn2[C@@H]1O[C@@H]2COP(=O)(S)O[C@H]3[C@@H](F)[C@H](n4cnc5c4ncn4ccnc54)O[C@@H]3COP(=O)(S)O[C@@H]1[C@@H]2O (single isomer, unassigned) [Example 15-2]
[III] O=[N+]([O-])c1cccc2c1nnn2[C@@H]1O[C@@H]2COP(=O)(S)O[C@H]3[C@@H](F)[C@H](n4cnc5c4ncn4ccnc54)O[C@@H]3COP(=O)(S)O[C@@H]1[C@@H]2O (single isomer, unassigned) [Example 15-1]
Arrange the 3 compounds from largest to smallest pIC50. Use the labels to give the requested order.
I, III, II
(I: 8.00, III: 7.70, II: 5.76)

----------
Molecular target: STING WT (His-TVMV-S-hSTING(155-341)-H232R) (Homo sapiens, UniProt Q86WV6, H232R)
Construct: STING WT: His-TVMV-S-hSTING(155-341)-H232R
Test: STING HTRF binding assay (time resolved FRET competition), STING WT
Conditions: 20 nM His-tagged STING WT cytoplasmic domain, 200 nM fluorescein-labeled cGAMP analog probe, one hour; read-out: HTRF Binding Assays IC50 WT
pIC50: −log10 of the molar value.
PROPERTY_LABEL: pIC50

NC(=O)c1cccc2c1nnn2[C@@H]1O[C@@H]2COP(=O)(S)O[C@H]3[C@@H](F)[C@H](n4cnc5c(N)ncnc54)O[C@@H]3COP(=O)(S)O[C@@H]1[C@@H]2F (single isomer, unassigned) [Example 10-2]: 7.00

[1] NC(=O)c1cccc2c1nnn2[C@@H]1O[C@@H]2COP(=O)(O)O[C@H]3[C@@H](F)[C@H](n4cnc5c(N)ncnc54)O[C@@H]3COP(=O)(O)O[C@@H]1[C@@H]2O [Example 1]
[2] Nc1ncnc2c1ncn2[C@@H]1O[C@@H]2COP(=O)(S)O[C@@H]3[C@H](O)[C@@H](COP(=O)(S)O[C@H]2[C@H]1F)O[C@H]3n1nnc2c([N+](=O)[O-])cccc21 (single isomer, unassigned) [Example 7-4]
Lab notebook, comparison: 1 versus 2 , higher pIC50 goes to which? Please identify the chosen entry by its label.
1
(1: 8.00, 2: 7.30)

----------
Biological target: STING AQ (His-TVMV-S-hSTING(155-341)-G230A-R293Q) (Homo sapiens, UniProt Q86WV6, G230A/H232R/R293Q)
Construct: STING AQ: His-TVMV-S-hSTING(155-341)-G230A-R293Q
Sequence (Q86WV6 with tags, fused parts or gaps G230A/H232R/R293Q): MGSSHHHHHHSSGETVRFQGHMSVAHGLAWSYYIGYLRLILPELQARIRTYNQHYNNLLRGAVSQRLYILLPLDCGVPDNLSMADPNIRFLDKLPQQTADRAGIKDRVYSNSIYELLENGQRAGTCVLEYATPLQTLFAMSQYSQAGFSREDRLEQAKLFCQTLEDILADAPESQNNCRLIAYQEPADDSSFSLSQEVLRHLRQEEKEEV
Assay: STING HTRF binding assay (time resolved FRET competition), STING AQ
Conditions: 20 nM His-tagged STING AQ cytoplasmic domain, 40 nM fluorescein-labeled cGAMP analog probe, one hour; read-out: HTRF Binding Assays IC50 AQ
Procedure: A time resolved FRET-based competition binding assay was used to assess test article binding to STING WT and STING AQ. […] Fluorescence at 495 nm and 520 nm was measured using an EnVision microplate reader to quantify FRET between Tb-labeled anti-His antibody and fluorescein-labeled probe. […] Percent inhibition was determined for test compounds at 11 concentrations. […]
pIC50: −log10 of the molar value.
PROPERTY_LABEL: pIC50

Below, 7 molecules whose answers are already recorded.
NC(=O)c1cccc2c1nnn2[C@@H]1O[C@@H]2COP(=O)(O)O[C@H]3[C@@H](F)[C@H](n4cnc5c(N)ncnc54)O[C@@H]3COP(=O)(O)O[C@@H]1[C@@H]2F: 8.00
O=[N+]([O-])c1cccc2c1nnn2[C@@H]1O[C@@H]2COP(=O)(S)O[C@H]3[C@@H](F)[C@H](n4cnc5c4ncn4ccnc54)O[C@@H]3COP(=O)(S)O[C@@H]1[C@@H]2O (single isomer, unassigned) [Example 15-2]: 7.30
Nc1ncnc2c1ncn2[C@@H]1O[C@@H]2COP(=O)(S)O[C@@H]3[C@H](F)[C@@H](COP(=O)(S)O[C@H]2[C@H]1F)O[C@H]3n1nnc2c(N)cccc21 (single isomer, unassigned) [Example 12-1]: 8.00
NC(=O)c1cccc2c1nnn2[C@@H]1O[C@@H]2COP(=O)(O)O[C@H]3[C@@H](F)[C@H](n4cnc5c(N)ncnc54)O[C@@H]3COP(=O)(S)O[C@@H]1[C@@H]2O (single isomer, unassigned) [Example 4-1]: 8.00
NC(=O)c1cccc2c1nnn2[C@@H]1O[C@@H]2COP(=O)(O)O[C@H]3[C@@H](F)[C@H](n4cnc5c(N)ncnc54)O[C@@H]3COP(=O)(S)O[C@@H]1[C@@H]2F (single isomer, unassigned) [Example 6-1]: 8.00
NC(=O)c1cccc2c1nnn2[C@@H]1O[C@@H]2COP(=O)(S)O[C@H]3[C@@H](F)[C@H](n4cnc5c(N)ncnc54)O[C@@H]3COP(=O)(S)O[C@@H]1[C@@H]2F (single isomer, unassigned) [Example 10-2]: 8.00
C=C1[C@H]2OP(=O)(S)OC[C@H]3O[C@@H](n4cnc5c(N)ncnc54)[C@H](F)[C@@H]3OP(=O)(S)OC[C@H]1O[C@H]2n1nnc2c(C(N)=O)cccc21 (single isomer, unassigned) [Example 22-2]: 8.00

[1] NC(=O)c1cccc2c1nnn2[C@@H]1O[C@@H]2COP(=O)(O)O[C@H]3[C@@H](F)[C@H](n4cnc5c4ncn4ccnc54)O[C@@H]3COP(=O)(S)O[C@@H]1[C@@H]2F (single isomer, unassigned) [Example 16-2]
[2] Nc1ncnc2c1ncn2[C@@H]1O[C@@H]2COP(=O)(S)O[C@@H]3[C@H](O)[C@@H](COP(=O)(S)O[C@H]2[C@H]1F)O[C@H]3n1nnc2c(C(F)(F)F)cccc21 (single isomer, unassigned) [Example 9-4]
Between 1 and 2 , which one shows the smaller pIC50 number? Please identify the chosen entry by its label.
2

----------
Biological target: STING WT (His-TVMV-S-hSTING(155-341)-H232R) (Homo sapiens, UniProt Q86WV6, H232R)
Construct: STING WT: His-TVMV-S-hSTING(155-341)-H232R
Assay: STING HTRF binding assay (time resolved FRET competition), STING WT
Details: 20 nM His-tagged STING WT cytoplasmic domain, 200 nM fluorescein-labeled cGAMP analog probe, one hour; read-out: HTRF Binding Assays IC50 WT
PROPERTY_LABEL: IC50 (nM)

Below, 2 molecules whose answers are already recorded.
NC(=O)c1cccc2c1nnn2[C@@H]1O[C@@H]2COP(=O)(S)O[C@H]3[C@@H](F)[C@H](n4cnc5c(N)ncnc54)O[C@@H]3COP(=O)(S)O[C@@H]1[C@@H]2F (single isomer, unassigned) [Example 10-4]: 10
Nc1ncnc2c1ncn2[C@@H]1O[C@@H]2COP(=O)(S)O[C@@H]3[C@H](F)[C@@H](COP(=O)(S)O[C@H]2[C@H]1F)O[C@H]3n1nnc2c([N+](=O)[O-])cccc21 (single isomer, unassigned) [Example 11-4]: 150

[A] Nc1ncnc2c1ncn2[C@@H]1O[C@@H]2COP(=O)(O)O[C@@H]3[C@H](O)[C@@H](COP(=O)(O)O[C@H]2[C@H]1O)O[C@H]3n1nnc2c([N+](=O)[O-])cccc21 [Example 2]
[B] NC(=O)c1cccc2c1nnn2[C@@H]1O[C@@H]2COP(=O)(O)O[C@H]3[C@@H](F)[C@H](n4cnc5c(N)ncnc54)O[C@@H]3COP(=O)(O)O[C@@H]1[C@@H]2F [Example 3]
[C] Nc1ncnc2c1ncn2[C@@H]1O[C@@H]2COP(=O)(S)O[C@@H]3[C@H](O)[C@@H](COP(=O)(S)O[C@H]2[C@H]1F)O[C@H]3n1nnc2c(C(F)(F)F)cccc21 (single isomer, unassigned) [Example 9-3]
List these items ordered by IC50, big to small. Use the labels to give the requested order.
C, A, B
